System: K4 kissing-loop RNA reporter
procedureDetails: apparent KD of K4 kissing-loop reporter; higher = weaker reporter binding
experimentalParameters: Eterna round: R107; input ligand: tryptophan 2.4 mM
assayMetric: apparent KD of K4 kissing-loop reporter (nM)
Give the value, in units of nM, as a plain number.

Solved cases below.
{"columns": ["polymerSequence", "apparent KD of K4 kissing-loop reporter [nM]"],
 "data": [
  ["GGGAGCAAAGCUCCCGGAUGCUAUAGUCAGGAGGAUAUCUGGAAACAGAGAAGGCCUAAGCCAGUGAUGUUGGCUAUAAGCAUCC", 589],
  ["UGUCGGUGAAGAAUGUUAGUGAUGUUGGCACGAGGACCGGUACGGCCGCCACUCGGUAAUCAUCGCAAUUAUCGAUGGCGUAGCC [theeternabot_exclusion_KL_Trp_A_3]", 182],
  ["UGGAGUUGACGAAAAGUCAACUCCCGAGAAGGAGCGGACGAAAGUCCAGGUAGGUCGCUCGCUACCAGUGAUGUUGGUACAUAAA", 109],
  ["AUGUACACGAUAGUGUACUCCUAGUGAUGUUAGGAUAUGCAGAUAUGCAGAAGGAACAAGUCAUCUGACAAUAGUCGGAUGACAA [FmnAX 9 #OpenEnded #K4Early]", 94.1],
  ["ACGACGGCAGCUCAGUGAUGUUGGGCAUUACGAGGACCGGUACGGCCGCCACUCGCUGCUUUGAUCCGUGGAUGAACCUCAGCAU [theeternabot_sameState_KL_Trp_A_13]", 402]
]}

Could you now look at the following sequence, please?
Record UCUGGUAUAUCUGAUACCAGAGUAUAGUAUCAAUUGCAUAUGGAGUGAUGUUCCAUAUAACUCCCUUGGCAGCAGAUCUAUCUCU [Same State Theophylline B GF 25] , field apparent KD of K4 kissing-loop reporter: 288

* * *

Test system: MS2 coat protein
procedureDetails: apparent KD of MS2 coat protein; designed switch direction (-1 OFF switch, 1 ON switch): -1; higher = weaker reporter binding
experimentalParameters: input ligand: microRNA oligo, concentration not stated
assayMetric: apparent KD of MS2 coat protein
Field: value (include unit after the number)

{"columns": ["polymerSequence", "apparent KD of MS2 coat protein"],
 "data": [
  ["AACCUGAGGCAAAGCUUUAGGUGUACAUGAGGAUCACCCAUGUAGGAUAUGGUAAGCAAAGCUUACCAGAAGGACAUAAUGAUA [Mat - Exclusion NG 3 - Mod of JL - D49] (Eterna round: R96, puzzle: Exclusion NG 3)", "37.6 nM"]
]}

Case AAUAAUCGGGCCUUCCUAAUACAUGAGGAUCACCCAUGUCUCGAGGAUAUACCAACGCACGGUCCGUAGAAGGCGAGACCACAC [Vesoonso] (Eterna round: R96, puzzle: Exclusion NG 3) , MS2 coat protein, apparent KD of MS2 coat protein recorded as 13.2 nM

* * *

Test system: MS2 coat protein
procedureDetails: apparent KD of MS2 coat protein; higher = weaker reporter binding
experimentalParameters: Eterna round: R107; input ligand: tryptophan 2.4 mM
Binary call on apparent KD of MS2 coat protein: True from 0.04 µM upward, False beneath that.

Worked set:
{"columns": ["polymerSequence", "assignedCategory"],
 "data": [
  ["GCAACAUGAGGAUCACCCAUGUUUACUGAAGGAGCGAGACAGAACUCAGGUAGGUCGCAGACGGCGGAAUCGCCGACGACAUGGG [Exclusion Arginine A GF24]", "False"],
  ["CCCAGUCAUAGCAGGGCAAAUAUACUCGAAGGAGCGUCAUAGUAGGCAGGUAGGUCGCGAGACAUGAGGAUCACCCAUGUAGAGA [cccmullin]", "True"],
  ["CAGCACAUGAGGAUCACCCAUGUGAGGGAUACCAGCUCAGGCGUGGGCCCUUGGCAGCUCUGUGGCUGACGAAAGUCAGCCUCUG [#18 SameState-TheophyllineA]", "False"],
  ["AGGAGACAUGAGGAUCACCCAUGUCCAGAUACCAGAAUGUCUUUGUUCCCUUGGCAGCUGUGGAAAUCUGACCUGCCUCGGUCUG [theeternabot_sameState_MS2_Theo_A_31]", "False"],
  ["UGUAUGUGAUUUGAUACCAGACCAGCUGGUGUUAUAUGAGGAUCACCCAUAUAGGUUUGGGUCCCUUGGCAGCAAAUCGCAUACU [SS Theo B #24 Ms14]", "False"]
]}

Problem: Kindly determine if apparent KD of MS2 coat protein recorded for AUCGUACCUGAUGAUACCAGCAUGUGAUCGUAACAUGAGGAUCACCCAUGUGAUCAGUGAUGCCCUUGGCAGCAUGAUCGGUACA [Same State - Theophylline B (Freestyle 15)] is above or exactly 0.04 µM.
Solution: False

Problem: Is it the case that ACACGGAAUGAUGGAUCACCUCGUUAAUAACGAGGACCGGUACGGCCGCCACUCGAAAACCGUGACCUGUACGAAAAGUGCAGGA [TrypAS 15 #SwitchBubble #HomemadeMS2 #StaticStrem #MS2Early] has apparent KD of MS2 coat protein reaching or exceeding 0.04 µM?
Solution: True

Problem: Check if apparent KD of MS2 coat protein >= 0.04 µM (inclusive). Item: CUUAUAUAUAGAAGGAGCGACAUGAGGAUCACCCAUGUCUACCACGUCGAAAGACGCUCAUGUCAGGUAGGUCGCUAUAUAUAAG [Astros-Eli-mod3]
Solution: True

Problem: Can UCGCUCUGGGUGGGAUCCGGAGAUGUGGAAGGAGCGCUGGUUACAGCAGGUAGGUCGCCAACGGACAUGAGGAUCACCCAUGUAC [Same State - Arginine A (Freestyle 16)] be said to have apparent KD of MS2 coat protein at or above 0.04 µM?
Solution: False

Problem: Decide: apparent KD of MS2 coat protein of AAUACCGGUCCUCGAAGCAUGGGUGAUCAACGAGGACCGGUACGGCCGCCACUCGAUAACAUGAGGAUCACCCAUGUAAUAAUAA [|T'-M'-Trp-Ms2|_Design5] >= 0.04 µM?
Solution: True

Problem: Threshold query (apparent KD of MS2 coat protein >= 0.04 µM) on ACAUGAGGGAUGGAUACCAGCGACAUGAGGAUCACCCAUGUAUGAGGAUCAGCCAUGUUAUGCCCUUGGCAGCCACGAACAUGAG [ACFMULLIN]
Solution: False

* * *

System: MS2 coat protein
procedureDetails: apparent KD of MS2 coat protein; designed switch direction (-1 OFF switch, 1 ON switch): -1; higher = weaker reporter binding
experimentalParameters: input ligand: FMN 200 uM
Recorded apparent KD of MS2 coat protein, one value per entry.
Please reply with the bare figure in µM and do not write the unit itself.

Memo: AGCUGUGGCCGAGGAUAUUGCGAACCAUGGAAAACCAUGGAAACUCUACAUGAGGAUCACCCAUGUAAGAAGGCGGUCUCAGCA [Eli eng2 - 025] (Eterna round: R96, puzzle: Exclusion NG 2) , reported apparent KD of MS2 coat protein: 0.0187

For CCUACUCAGCGAGGAUAUGUAACGGUGACUAGGGACGUCUACAUGAGGAUCACCCAUGUGACUAAGCAGAAGGCGCAGAGCCCA [Learve] (Eterna round: R96, puzzle: Exclusion NG 2) the sequence record lists apparent KD of MS2 coat protein as 0.0542

* * *

System: K4 kissing-loop RNA reporter;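 also: bound reporter read as fluorescence of individual clusters on recovered sequencing chips by microscopy, with normalized cluster intensities fitted with a binding model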
procedureDetails: apparent KD of K4 kissing-loop reporter; higher = weaker reporter binding
experimentalParameters: Eterna round: R107; input ligand: FMN 200 uM
Measured apparent KD of K4 kissing-loop reporter, listed per entry.
Numeric only. Scale: nM

{"columns": ["polymerSequence", "apparent KD of K4 kissing-loop reporter / nM"],
 "data": [
  ["UGUCAUUGGUCGGCCGCCACUAAAAUAAAAGAGUGAUGUUCUUAAAAGACGGACAAAGUCUGUCAUAGGACCGGGACCGAUGACU [TrypBS 23 #SwitchBubble #StaticStem]", 547],
  ["CCGGGCGGCUGAAGGAGCGGGCGGGCCCGAGUGAUGUUCGGGUGGACCGUGAGGUCCGGUGCCCAGGUAGGUCGCGGUUCCGCCC [#2 Same State - Arginine B Attempt #8 (HarryS)]", 247],
  ["UGUACCGAGUCAGGAUAUGUCGUCGAAAGACGAAUCCUAGUGAUGUUAGGGAUCUGCGAAAGCAGUGCAGAAGGGACUUGGUACU [FmnBS 26 U20+G67]", 235],
  ["AACAUUUUCAGAAGGAGCGUGAAUUAUUCAUAAUUAUAUUAUACGAGUGAUGUUCGUAUUUCACAGGUAGGUCGCUGAUAUAUUA [JR_SSArginiB_Sub001]", 113],
  ["AACCGUGUGGCGGCCGCCACUAGUCUCCAGUGAUGUUGGAGAGACCACGUAAGUGGUCUCCGACAUAGGACCGGGCCAUAUGGAA [Same State - Tryptophan B (Freestyle 25)]", 547],
  ["CCUGCAGCUGUUACCGAGGGAUGCUACGGACGAGGACCGGUACGGCCGCCACUCGCCAGUGAUGUUGGUGAGGGAGGACGUUACU [KL-XTryp-A21]", 137]
]}

Kindly note the recorded apparent KD of K4 kissing-loop reporter for CGUCUAUAGCAGGAUACCAGUACCCAUUAUGUACGUUUAUAGUAGAGUGAUGUUCUAAAGUACCCUUGGCAGCUUCCUGUGACCC [#24 K4 Theophylline B Exclusion] , which is 179

The reported apparent KD of K4 kissing-loop reporter of the sequence AAGAAUAAUCUUGCAGUGAUGUUGCAAGAUACCAGCAUCGAAAGAUGCCCUUGGCAGCUUGAAACUGCAAGAAUCAAGCUGAAUA [Design1] was 150

Entry UGCAUCGUUGGCAGGCGCACCACACAGUGUAAGGAUAUGAUGUCGUUCAGAAGGUACGCUUGACCGAGUGAUGUUCGGGAGUGCC [theeternabot_sameState_KL_FMN_A_9] ; apparent KD of K4 kissing-loop reporter = 224

# apparent KD of K4 kissing-loop reporter of AGUUAUGUUGCGGCCGCCACUGCGCGAGUGAUGUUCGUGGCAUAUAUAAUGUUAUAUAUGCAUCACAGGACCGGGCGGCAUAGCG [Same State - Tryptophan B] = 512

// sample GUUACGCAUGGAAGGAGCGCGAUAAUAUUAAGUGAGUGAUGUUCACAAAGAAAAUAAAUAACGCAGGUAGGUCGCCAUGUGUAAC [Ex Arginine B K4 4] , its apparent KD of K4 kissing-loop reporter was 79.3

Kindly note the recorded apparent KD of K4 kissing-loop reporter for UAUAUAUGAUGUGAUACCAGUGAAGAGCCAGUGAUGUUGGUAGAACUGGUAUAUAAAUAACACCCUUGGCAGCACAAUCACGUAU [whbob_Ex_Theo_B_sa97] , which is 160

The sequence listed as CGAGUGAUGUUCGUUUUAAAAUUUUUUUGACAGGAUAUGCGGAAACGCAGAAGGGUCACCUUUGAGUUAAAAGAAAUUAAAUUUU [Ex FMN 16] shows apparent KD of K4 kissing-loop reporter equal to 175

Summary for this sequence, ACGUGCACCAGUGAUGUUGGAAAAUAUGAAGGAGCGUGCGAAAGCACAGGUAGGUCGCAUAAUAGCACGAGCCACGAAAGUGGCA [#SwitchBubble 6 #K4Early #Sliding] : apparent KD of K4 kissing-loop reporter is 131

// apparent KD of K4 kissing-loop reporter value for ACGAAGGAUGGAAGGAGCGCUCGUCAGUCCUGCGAGUGAUGUUCGUGGGUAAAUAUUCGCGAGCAGGUAGGUCGCCAUCUUGAGC [Soregeor] : 144

The reported measurements were obtained from the supplement of paper PMC9170038.
